- method description: yeast display, Sf9 membrane polyspecificity reagent, FACS + sequencing; frameworks hold sequencing errors
measured parameter: polyreactivity (PSR sort gate)

• QVQLVESGGGLVQAGGSLRLSCASSGSIFSKYAMGWYRQAPGKERELVAAITLNGGSTYYADSVKGRFTISRDNAKNTVYLQMNSLKPEDTAVYYCAKSDRPWWGYYYSWGQGSQVTVSS = low polyreactivity
• QVQLQESGGGLVQAGGSLLSCAASGTISYYREMGSYRQAPGKERELVAGIGVGTITYYADSVKGRFTISRDNAKKTVFLQMNSLNPEDTAVYFCGDHIDGNDSHAYWGQGTQVTVSS = low polyreactivity

====

- method description: yeast display, Sf9 membrane polyspecificity reagent, FACS + sequencing; frameworks hold sequencing errors
measured parameter: polyreactivity (PSR sort gate)

Consider the worked cases shown below.
- QVQLVESGGGLVQAGGSLRLSCAASGLTFIYKAMAWYRQAPGKERELVAAISGNGGDTYYADSVKGRFTISRDNAKKTVYLQMNSLKPEDTAVYYCAADYAYTPITWDEYWGQGTQVTVSS: low polyreactivity
- QVQLVESGGGLVQAGGSLRLSCAASGNNLSVYTMGWYRQAPGKERELVATITYSGDRTYADSVKGRFTISRDNAKNTVYLQMNSLKPEDTAVYYCAKRNFGSYIRRGHWGQGTQVTVSS: low polyreactivity
- QVQLVESGGGLVQAGGSLRLSCAASGSTFAQNVMGWYRQAPGKERELVAAITSSGSTNYADSVKGRFTISRDNAKNTVYLQMNILKPEDTAVFYCAKDVLAPYSRHDYWGQGTQVTVSS: low polyreactivity
- QVQLVESRGGLVQAGGSLRLSCAASGRNFPINTMGWYRQAPGKERELVAAIRTSGSSTYADSVKGRFTISRDNAKNSVYLQMNSLKPEDTAVYYCNTKYPGRGYYWGQGTQVTVSS: high polyreactivity

According to the records, this sequence QVHLVESGGGLVKAGGSLRLSCPASGFIFTLYAMGWYRQPPGKERELVASIRGSGGNTYYADSVKGRFTISRDNAKNTVYLQMNSLKPEDTAVYYCAAGYPYYYWTPYYYWGQGTQVTVSS displays polyreactivity (PSR sort gate) of high polyreactivity
